- testName: chemical genetic growth profiling, strain panel (AID 1159580);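 further: tested at 20 µM; growth read once vehicle control cultures reached saturation at 30 °C; 1 = growth at the plate median or of vehicle wells; lower values mean less growth of the strain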
- reportedConditions: S. cerevisiae deletion strains, growth OD, locus YBL105C, strain PKC1, active compounds read low
In all, about 5,500 compounds went through this assay and about 2,000 (36%) were called active. About 18% were inconclusive and are not listed. The list shows a part of the results.
Assign normalized growth to each entry below.

# example entries with known answers
Cc1cc(Cl)ccc1NNC(=O)c1sccc1Br = 0.925 (inactive)
O=C1Nc2ccccc2/C1=C/c1ccc(C(F)(F)F)cc1Cl = 0.965 (inactive)
O=C(Nc1ccccc1)Nc1ccc(Cl)cc1[N+](=O)[O-] = 0.973 (inactive)
FC(F)(F)c1ccc(N2CCc3ccccc3C2)c(NC(=S)Nc2cc(Cl)cc(Cl)c2)c1 = 0.981 (inactive)

I'm hoping you can list normalized growth for every compound here, please.
1. Cc1ccc(NNC(=O)c2cccs2)cc1Cl
2. CCCCNC(=S)N/N=C\c1cc(Cl)cc(Cl)c1O
3. COc1cc(Br)cc(C=Nc2ccc(Sc3ccccc3)nc2Sc2ccccc2)c1O
4. CC(C)(C)NC(=S)N/N=C\c1ccccc1O
5. COc1ccc(/C=C2/C(=O)Nc3ccccc32)cc1
6. CN(C)C=Nc1nnc(Sc2nc3c(Cl)cc(Cl)cc3s2)s1
7. Cc1cc(Oc2ccc(C(F)(F)F)cc2NS(C)(=O)=O)cc(C)c1Cl

[reply]
0.969 (inactive)
0.928 (inactive)
0.976 (inactive)
0.957 (inactive)
0.884 (active)
0.969 (inactive)
0.988 (inactive)

I'm hoping you can list normalized growth for every compound here, please.
1. O=C1Nc2ccccc2/C1=C\c1ccc(Cl)cc1
2. O=C1Nc2ccccc2/C1=C/c1ccc(Oc2ccccc2)nc1
3. Cc1nnc2n1N=C(c1ccc(CC(C)C)cc1)C(C)S2 (stereo unspecified)
4. COCCCNC(=S)N/N=C\c1cc(Cl)cc(Cl)c1O
5. Oc1c(Br)cc(Br)cc1/C=N\n1cnnc1
6. O=[N+]([O-])c1cc(Cl)cc([N+](=O)[O-])c1Nc1ccccc1

[reply]
1: 0.943 (inactive); 2: 0.959 (inactive); 3: 0.975 (inactive); 4: 0.946 (inactive); 5: 0.942 (inactive); 6: 0.927 (inactive)

I'm hoping you can list normalized growth for every compound here, please.
1. O=C1Nc2ccccc2/C1=C\c1cccc([N+](=O)[O-])c1
2. O=C1/C(=C/c2ccccn2)CCc2ccccc21
3. COCCCNC(=S)N/N=C\c1cc(Br)ccc1O
4. CC(NC(=S)N/N=C\c1ccccc1O)c1ccccc1 (stereo unspecified)
5. O/N=C(/c1ccc(Cl)cc1)c1cc2ccccc2o1
6. Oc1c(Br)cc(Br)cc1C=Nc1ccccn1

[reply]
0.967 (inactive)
0.944 (inactive)
0.971 (inactive)
0.982 (inactive)
0.946 (inactive)
0.969 (inactive)

I'm hoping you can list normalized growth for every compound here, please.
1. Cc1cc(Cl)ccc1NNC(=O)c1sccc1Cl
2. CCNC(=S)N/N=C\c1cc(Cl)cc(Cl)c1O
3. CCOC(=O)N/N=C\c1cc(Cl)cc(Cl)c1O

[reply]
1: 0.912 (inactive); 2: 0.938 (inactive); 3: 0.95 (inactive)
